propertyLabel: Ki (µM)
Output spec: scalar in µM, unitless text.

Param request: Ki | system UniProt P15917 | item CCCC[C@H](C[C@@H](OC)c1ccc(F)cc1)C(=O)NO 5.8

Param request: Ki | system UniProt P15917 | item COc1ccc(C(CCC(=O)NO)OC)cc1 (stereo not drawn) 193

Param request: Ki | system UniProt P15917 | item CCC[C@@H](C[C@@H](OC)c1ccc(F)cc1)C(=O)NO 1.57

Param request: Ki | system UniProt P15917 | item CO[C@H](C[C@H](C/C=C/c1ccccc1)C(=O)NO)c1ccc(F)cc1 9.3

Param request: Ki | system UniProt P15917 | item CO[C@H](C[C@H](CCN1CCCC(CO)C1)C(=O)NO)c1ccc(F)cc1 (stereo partly drawn) 0.76

Param request: Ki | system UniProt P15917 | item CO[C@H](C[C@H](CCN(C)Cc1ccc(Br)cc1)C(=O)NO)c1ccc(F)cc1 2.2

Param request: Ki | system UniProt P15917 | item CO[C@H](C[C@H](CCN(Cc1ccccc1)C(C)C)C(=O)NO)c1ccc(F)cc1 14

Param request: Ki | system UniProt P15917 | item COC(CCC(=O)NO)c1ccc(C)cc1C (stereo not drawn) 134

Param request: Ki | system UniProt P15917 | item COc1cccc(C(CCC(=O)NO)OC)c1 (stereo not drawn) 276

###

molecular target: Lethal factor protease (Bacillus anthracis)
Provide the recorded Ki for the entries that follow.

Param request: Ki | system Lethal factor protease (Bacillus anthracis) | item CO[C@H](C[C@H](CCN(C)c1ccccc1)C(=O)NO)c1ccc(F)cc1 [Compound 168028] 1820 nM

Param request: Ki | system Lethal factor protease (Bacillus anthracis) | item CO[C@H](C[C@H](CCN(C)C)C(=O)NO)c1ccc(F)cc1 [Compound 167954] 970 nM

Param request: Ki | system Lethal factor protease (Bacillus anthracis) | item CO[C@H](C[C@H](CCN1CCNCC1)C(=O)NO)c1ccc(F)cc1 [Compound 167955] 830 nM

Param request: Ki | system Lethal factor protease (Bacillus anthracis) | item CO[C@H](C[C@H](CCN1CCN(CCCc2ccccc2)CC1)C(=O)NO)c1ccc(F)cc1 [Compound 167959] 1000 nM

Param request: Ki | system Lethal factor protease (Bacillus anthracis) | item CO[C@H](C[C@H](CCN1CCN(C(=O)OC(C)(C)C)CC1)C(=O)NO)c1ccc(F)cc1 [Compound 167944] 2500 nM

Param request: Ki | system Lethal factor protease (Bacillus anthracis) | item COC(CCC(=O)NO)c1cccc(C(F)(F)F)c1 (stereo not drawn) [Compound 167492] > 300000 nM

Param request: Ki | system Lethal factor protease (Bacillus anthracis) | item CO[C@H](C[C@H](CCN1CCCCCCC1)C(=O)NO)c1ccc(F)cc1 [Compound 167912] 284000 nM

Param request: Ki | system Lethal factor protease (Bacillus anthracis) | item CO[C@H](C[C@H](CCN(C)Cc1cccc(-c2ccc(F)c(C)c2)c1)C(=O)NO)c1ccc(F)cc1 [Compound 168003] 2300 nM

Param request: Ki | system Lethal factor protease (Bacillus anthracis) | item COC(CCC(=O)NO)c1ccc(C(F)(F)F)cc1 (stereo not drawn) [Compound 167511] 240000 nM

Param request: Ki | system Lethal factor protease (Bacillus anthracis) | item CO[C@H](C[C@H](CCN1CCN(CCc2ccccc2)CC1)C(=O)NO)c1ccc(F)cc1 [Compound 167958] 2400 nM

Param request: Ki | system Lethal factor protease (Bacillus anthracis) | item CO[C@H](C[C@H](CCN(C)CCc1ccccc1)C(=O)NO)c1ccc(F)cc1 [Compound 167952] 770 nM

Param request: Ki | system Lethal factor protease (Bacillus anthracis) | item CO[C@H](CCC(=O)NO)c1ccc(F)c(C)c1 [Compound 167223] 11900 nM

###

Provide the recorded pKi for the entries that follow.
biological target: Lethal factor protease (Bacillus anthracis, UniProt P15917)
Sequence (P15917 34-809 limits assumed): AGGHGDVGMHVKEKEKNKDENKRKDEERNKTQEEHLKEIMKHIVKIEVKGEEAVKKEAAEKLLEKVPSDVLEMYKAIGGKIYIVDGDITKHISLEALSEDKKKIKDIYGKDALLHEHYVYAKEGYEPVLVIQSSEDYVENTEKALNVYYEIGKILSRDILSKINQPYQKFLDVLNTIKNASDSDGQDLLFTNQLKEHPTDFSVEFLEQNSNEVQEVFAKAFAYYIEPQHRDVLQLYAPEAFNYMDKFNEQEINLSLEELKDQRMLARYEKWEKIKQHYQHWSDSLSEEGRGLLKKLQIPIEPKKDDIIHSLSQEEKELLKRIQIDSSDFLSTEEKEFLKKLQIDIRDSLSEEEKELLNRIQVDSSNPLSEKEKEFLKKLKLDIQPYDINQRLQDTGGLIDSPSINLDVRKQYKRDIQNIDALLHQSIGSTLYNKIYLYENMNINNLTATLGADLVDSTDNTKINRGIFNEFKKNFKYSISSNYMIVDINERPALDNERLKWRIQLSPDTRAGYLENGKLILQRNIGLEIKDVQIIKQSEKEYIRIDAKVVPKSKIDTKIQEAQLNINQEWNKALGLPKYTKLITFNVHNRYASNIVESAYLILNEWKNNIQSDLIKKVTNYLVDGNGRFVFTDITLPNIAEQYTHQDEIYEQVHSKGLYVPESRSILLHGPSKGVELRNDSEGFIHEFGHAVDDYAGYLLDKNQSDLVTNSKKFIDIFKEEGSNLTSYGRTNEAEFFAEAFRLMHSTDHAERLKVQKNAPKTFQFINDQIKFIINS
In plain terms, pKi is the concentration in mol/L turned into minus its base-10 logarithm.

Param request: pKi | system Lethal factor protease (Bacillus anthracis, UniProt P15917) | item CO[C@H](C[C@H](CC1CC1)C(=O)NO)c1ccc(F)cc1 [Compound 167433] 5.85

Param request: pKi | system Lethal factor protease (Bacillus anthracis, UniProt P15917) | item CO[C@H](C[C@H](C)C(=O)NO)c1ccc(F)cc1 [Compound 167297] 5.64

Param request: pKi | system Lethal factor protease (Bacillus anthracis, UniProt P15917) | item CO[C@H](C[C@H](CCCCNc1ccc(F)cc1)C(=O)NO)c1ccc(F)cc1 [Compound 168229] 5.55

Param request: pKi | system Lethal factor protease (Bacillus anthracis, UniProt P15917) | item CCCCN(C)CC[C@@H](C[C@@H](OC)c1ccc(F)cc1)C(=O)NO [Compound 167828] 5.96

Param request: pKi | system Lethal factor protease (Bacillus anthracis, UniProt P15917) | item C=CC[C@H](C[C@@H](OC)c1ccc(F)c(C)c1)C(=O)NO [Compound 167672] 4.38

Param request: pKi | system Lethal factor protease (Bacillus anthracis, UniProt P15917) | item CO[C@H](C[C@H](CCN(C)C/C=C/c1ccccc1)C(=O)NO)c1ccc(F)cc1 [Compound 168017] 6.28

Param request: pKi | system Lethal factor protease (Bacillus anthracis, UniProt P15917) | item COC(CCC(=O)NO)c1cccc(C)c1 (stereo not drawn) [Compound 167491, N-hydroxy-4-methoxy-4-m-tolylbutanamide] 3.75

Param request: pKi | system Lethal factor protease (Bacillus anthracis, UniProt P15917) | item CO[C@H](C[C@H](CCN(c1ccccc1)c1ccccc1)C(=O)NO)c1ccc(F)cc1 [Compound 167796] 5.68

Param request: pKi | system Lethal factor protease (Bacillus anthracis, UniProt P15917) | item CO[C@H](C[C@H](CCCCN(C)Cc1ccc(F)cc1)C(=O)NO)c1ccc(F)cc1 [Compound 168138] 6.41

Param request: pKi | system Lethal factor protease (Bacillus anthracis, UniProt P15917) | item CO[C@H](C[C@H](CCN(C)c1ccc(-c2ccc(F)c(C)c2)cc1)C(=O)NO)c1ccc(F)cc1 [Compound 168038] 6.04

Param request: pKi | system Lethal factor protease (Bacillus anthracis, UniProt P15917) | item CO[C@H](C[C@H](CCN1CCN(Cc2ccccc2)CC1)C(=O)NO)c1ccc(F)cc1 [Compound 167962] 5.72

Param request: pKi | system Lethal factor protease (Bacillus anthracis, UniProt P15917) | item CO[C@H](C[C@H](CCCc1ccccc1)C(=O)NO)c1ccc(F)cc1 [Compound 167337] 5.11

Param request: pKi | system Lethal factor protease (Bacillus anthracis, UniProt P15917) | item C=CC[C@@H](C[C@@H](OC)c1ccc(F)c(C)c1)C(=O)NO [Compound 167673] 5.18

Param request: pKi | system Lethal factor protease (Bacillus anthracis, UniProt P15917) | item COC(CC(C)C(=O)NO)c1ccc(F)cc1 (stereo not drawn) [Compound 167288] 5.51

Param request: pKi | system Lethal factor protease (Bacillus anthracis, UniProt P15917) | item CO[C@H](C[C@H](CCN(C)Cc1ccc(-c2ccc(F)c(C)c2)cc1)C(=O)NO)c1ccc(F)cc1 [Compound 168037] 6.17

Param request: pKi | system Lethal factor protease (Bacillus anthracis, UniProt P15917) | item CCCC[C@H](C[C@H](OC)c1ccc(F)cc1)C(=O)NO [Compound 167389] 4.12

Param request: pKi | system Lethal factor protease (Bacillus anthracis, UniProt P15917) | item CO[C@H](C[C@H](CCN1CCC[C@@H](CN2CCCCC2)C1)C(=O)NO)c1ccc(F)cc1 [Compound 168045] 6.37

Param request: pKi | system Lethal factor protease (Bacillus anthracis, UniProt P15917) | item CO[C@H](C[C@H](CCCCNCc1ccc(C)o1)C(=O)NO)c1ccc(F)cc1 [Compound 168228] 5.55

Param request: pKi | system Lethal factor protease (Bacillus anthracis, UniProt P15917) | item CO[C@H](C[C@H](CCN1CCN(Cc2ccc(F)c(C)c2)CC1)C(=O)NO)c1ccc(F)cc1 [Compound 167960] 6.01

Param request: pKi | system Lethal factor protease (Bacillus anthracis, UniProt P15917) | item CO[C@@H](C[C@@H](CCCc1ccccc1)C(=O)NO)c1ccc(F)cc1 [Compound 167341] 4.74

Param request: pKi | system Lethal factor protease (Bacillus anthracis, UniProt P15917) | item COC(CCC(=O)NO)c1ccc(Cl)cc1 (stereo not drawn) [Compound 167460] 4.28

Param request: pKi | system Lethal factor protease (Bacillus anthracis, UniProt P15917) | item CO[C@H](C[C@H](CCN1CCCCC1)C(=O)NO)c1ccc(F)cc1 [Compound 167889] 5.82

Param request: pKi | system Lethal factor protease (Bacillus anthracis, UniProt P15917) | item CCN(CC)CC[C@@H](C[C@@H](OC)c1ccc(F)cc1)C(=O)NO [Compound 167995] 5.66
